# assayed system: T1, human serum albumin (human, UniProt P02768 25-609)
# T1 construct: Bought protein, immobilized on a CM5 chip by amine coupling; also called Human SA
# assay protocol: SPR (Biacore 8K), albumin immobilized on CM5 chip, 25 C, 1:1 kinetic fit

binder: RLN Analog 2 (other, Single-chain fusion: VHH - (PGPA)8 L1 - RLN2 A chain - L2 - RLN2 B chain (desB1)) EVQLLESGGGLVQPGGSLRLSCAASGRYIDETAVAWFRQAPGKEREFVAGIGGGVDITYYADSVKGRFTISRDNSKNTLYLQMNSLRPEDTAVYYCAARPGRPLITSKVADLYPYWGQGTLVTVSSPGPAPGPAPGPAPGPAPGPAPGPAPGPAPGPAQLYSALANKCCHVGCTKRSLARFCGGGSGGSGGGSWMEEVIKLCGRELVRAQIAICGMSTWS
kon: 920000 M⁻¹ s⁻¹
//
binder: RLN Analog 4 (other, Single-chain fusion: VHH - (PGPQ)8 L1 - RLN2 B chain (desB1) - L2 - RLN2 A chain) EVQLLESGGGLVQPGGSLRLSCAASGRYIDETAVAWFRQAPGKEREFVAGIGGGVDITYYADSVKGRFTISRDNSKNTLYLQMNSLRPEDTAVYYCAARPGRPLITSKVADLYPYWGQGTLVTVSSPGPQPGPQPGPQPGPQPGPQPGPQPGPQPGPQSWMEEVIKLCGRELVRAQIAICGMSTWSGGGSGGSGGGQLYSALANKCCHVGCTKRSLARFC
kon: 1.2e+06 M⁻¹ s⁻¹
